target: human IP6K3 (Homo sapiens); construct: human IP6K3 (1-410) gene; made in house; host or cells: BL21 (DE3) Escherichia coli; assay: IP6K enzyme inhibitory assay (ADP-Glo Kinase Assay), human IP6K3; assay type: biochemical; conditions: compound concentration 0.1 μM; read-out: ADP-Glo method inhibitory rate (%) human IP6K3
Sequence (Q96PC2 whole entry): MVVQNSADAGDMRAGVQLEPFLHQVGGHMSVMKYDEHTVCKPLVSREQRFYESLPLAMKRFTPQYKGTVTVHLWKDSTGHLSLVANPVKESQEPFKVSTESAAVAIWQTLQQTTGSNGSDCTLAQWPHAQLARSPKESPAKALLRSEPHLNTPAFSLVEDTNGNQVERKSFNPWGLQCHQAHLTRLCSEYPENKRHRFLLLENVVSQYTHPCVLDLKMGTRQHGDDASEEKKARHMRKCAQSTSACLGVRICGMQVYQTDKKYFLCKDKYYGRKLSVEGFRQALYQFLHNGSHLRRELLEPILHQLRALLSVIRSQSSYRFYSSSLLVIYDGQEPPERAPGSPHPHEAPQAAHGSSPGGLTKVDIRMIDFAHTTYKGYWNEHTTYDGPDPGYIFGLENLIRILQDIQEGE
Reported inhibition at 0.1 µM by item:
measured metric: inhibition at 0.1 µM

INSERT INTO assay_data (smiles_str, tested_target, result) VALUES
  ('O=C(O)c1ccc2c(c1)[C@]1(CC[C@@H](Oc3ccc(C(F)(F)F)nc3)CC1)C(=O)N2', 'human IP6K3 (Homo sapiens)', '97%'),
  ('N#Cc1cc(O[C@H]2CC[C@@]3(CC2)C(=O)Nc2ccc(C(=O)O)cc23)ccc1Cl', 'human IP6K3 (Homo sapiens)', '95%'),
  ('Cc1cncc(O[C@H]2CC[C@@]3(CC2)C(=O)Nc2ccc(C(=O)O)cc23)c1', 'human IP6K3 (Homo sapiens)', '74%'),
  ('O=C(O)c1ccc2c(n1)[C@]1(CC[C@H](Oc3ncc(C(F)(F)F)cc3Cl)CC1)C(=O)N2', 'human IP6K3 (Homo sapiens)', '99%'),
  ('Cc1cccc(O[C@H]2CC[C@@]3(CC2)C(=O)Nc2ccc(C(=O)O)cc23)c1', 'human IP6K3 (Homo sapiens)', '97%'),
  ('Cc1nc(O[C@H]2CC[C@@]3(CC2)C(=O)Nc2ccc(C(=O)O)cc23)nc(C)c1Cl', 'human IP6K3 (Homo sapiens)', '95%'),
  ('Cc1cc(Cl)cc(C)c1O[C@H]1CC[C@@]2(CC1)C(=O)Nc1ccc(C(=O)O)nc12', 'human IP6K3 (Homo sapiens)', '101%'),
  ('O=C(O)c1ccc2c(c1)[C@]1(CC[C@@H](Oc3cc(Cl)ccn3)CC1)C(=O)N2', 'human IP6K3 (Homo sapiens)', '92%'),
  ('O=C(O)c1ccc2c(c1)[C@]1(CC[C@@H](Oc3ccc(F)cc3F)CC1)C(=O)N2', 'human IP6K3 (Homo sapiens)', '100%'),
  ('O=C(O)c1ccc2c(n1)[C@]1(CC[C@@H](Oc3ccc(Cl)cc3Cl)CC1)C(=O)N2', 'human IP6K3 (Homo sapiens)', '97%'),
  ('O=C(O)c1ccc2c(n1)[C@]1(CC[C@@H](Oc3c(F)cc(Cl)cc3F)CC1)C(=O)N2', 'human IP6K3 (Homo sapiens)', '101%');

====

Target: human IP6K2 (Homo sapiens, UniProt Q9UHH9)
Construct: human IP6K2 (1-426) gene; GST; made in house; host or cells: Sf-9 insect cells
Sequence (Q9UHH9 whole entry): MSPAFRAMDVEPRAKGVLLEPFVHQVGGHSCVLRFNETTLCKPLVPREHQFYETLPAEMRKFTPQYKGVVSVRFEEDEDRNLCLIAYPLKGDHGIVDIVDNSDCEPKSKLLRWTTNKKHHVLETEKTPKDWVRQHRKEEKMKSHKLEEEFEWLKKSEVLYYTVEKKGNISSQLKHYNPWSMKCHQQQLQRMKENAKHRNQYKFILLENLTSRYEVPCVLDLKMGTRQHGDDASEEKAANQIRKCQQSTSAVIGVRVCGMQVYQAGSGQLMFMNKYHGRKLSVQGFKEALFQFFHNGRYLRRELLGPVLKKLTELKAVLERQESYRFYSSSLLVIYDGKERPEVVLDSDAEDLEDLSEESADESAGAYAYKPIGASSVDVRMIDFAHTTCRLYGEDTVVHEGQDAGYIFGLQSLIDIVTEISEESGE
Assay: IP6K enzyme inhibitory assay (ADP-Glo Kinase Assay), human IP6K2
Type: biochemical
Details: compound concentration 0.1 μM; read-out: ADP-Glo method inhibitory rate (%) human IP6K2
Method: IP6K Enzyme Inhibitory Assay Human IP6K3 enzyme was prepared by transducing human IP6K3 (1-410) gene into BL21 (DE3) Escherichia coli and purifying by Ni-NTA (nickel-nitrilotriacetic acid) affinity column. […] The IP6K enzyme inhibitory activity of the test compound was measured by the following experiment method and using ADP-Glo™ Kinase Assay (manufactured by Promega). […] After the reaction, the luminescence intensity was measured by a plate reader Envision (manufactured by PerkinElmer).
measured metric: inhibition at 0.1 µM

INSERT INTO results (compound, measured_metric, result) VALUES
  ('O=C(O)c1ccc2c(c1)[C@]1(CC[C@@H](Oc3ccc(F)cc3Cl)CC1)C(=O)N2 [Example 68]', 'inhibition at 0.1 µM', '98%'),
  ('N#Cc1c(F)cccc1O[C@H]1CC[C@@]2(CC1)C(=O)Nc1ccc(C(=O)O)cc12 [Example 63]', 'inhibition at 0.1 µM', '87%'),
  ('O=C(O)c1ccc2c(n1)[C@]1(CC[C@H](Oc3ccc(Cl)cc3Cl)CC1)C(=O)N2 [Example 101]', 'inhibition at 0.1 µM', '100%'),
  ('O=C(O)c1ccc2c(c1)[C@]1(CC[C@@H](Oc3ccccc3C(F)(F)F)CC1)C(=O)N2 [Example 74]', 'inhibition at 0.1 µM', '92%'),
  ('Cc1cc(Cl)cnc1O[C@H]1CC[C@]2(CC1)C(=O)Nc1ccc(C(=O)O)nc12 [Example 81]', 'inhibition at 0.1 µM', '100%'),
  ('O=C(O)c1ccc2c(c1)[C@]1(CC[C@H](Oc3ccc(Cl)cc3)CC1)C(=O)N2 [Example 108]', 'inhibition at 0.1 µM', '101%'),
  ('Cc1ccc(O[C@H]2CC[C@@]3(CC2)C(=O)Nc2ccc(C(=O)O)cc23)c(C)n1 [Example 35]', 'inhibition at 0.1 µM', '96%'),
  ('O=C(O)c1ccc2c(c1)[C@]1(CC[C@@H](Oc3cccc(F)c3F)CC1)C(=O)N2 [Example 59]', 'inhibition at 0.1 µM', '86%'),
  ('N#Cc1cccc(F)c1O[C@H]1CC[C@@]2(CC1)C(=O)Nc1ccc(C(=O)O)cc12 [Example 62]', 'inhibition at 0.1 µM', '91%'),
  ('O=C(O)c1ccc2c(c1)[C@]1(CC[C@@H](Oc3ccc(F)cc3)CC1)C(=O)N2 [Example 2]', 'inhibition at 0.1 µM', '94%'),
  ('O=C(O)c1ccc2c(c1)[C@]1(CC[C@@H](Oc3ccc(F)c(C(F)(F)F)c3)CC1)C(=O)N2 [Example 79]', 'inhibition at 0.1 µM', '89%'),
  ('O=C(O)c1ccc2c(n1)[C@]1(CC[C@@H](Oc3ccc(Cl)cc3Cl)CC1)C(=O)N2 [Example 102]', 'inhibition at 0.1 µM', '94%'),
  ('N#Cc1ccc(O[C@H]2CC[C@@]3(CC2)C(=O)Nc2ccc(C(=O)O)cc23)cc1 [Example 45]', 'inhibition at 0.1 µM', '93%');
